- Tgt: AMPA receptor
- Measurement Notes: AMPA receptor affinity (receptor binding, as described by T. Honore et al.)
- Condition Context: Neuroscience Letters 54, 27-32 (1985)
pIC50: −log10 of the molar value.
Measurement Label: pIC50

1. CN1CCc2c(-c3ccccc3)cc3c(c2C1)NC(=O)C3=NOC(=O)C(C)(C)C :: 6.72
2. CCNC(=O)ON=C1C(=O)Nc2c1cc(-c1ccccc1)c1c2CN(C)CC1 :: 6.46
3. CCNC(=O)ON=C1C(=O)Nc2c1cc(-c1ccc(S(=O)(=O)N(C)C)cc1)c1c2CN(C)CC1 :: 7.42
4. CCN1Cc2c(-c3ccccc3)cc3c(c2C1)NC(=O)C3=NOC(C)=O :: 5.77
5. CN1CCc2c(-c3ccc(S(=O)(=O)N(C)C)cc3)cc3c(c2C1)NC(=O)C3=NOC(=O)NC1CCCCC1 :: 7.85
6. CC(=O)ON=C1C(=O)Nc2c1cc(-c1ccccc1)c1c2CN(C)CC1 :: 6.82

###

- Tested on: cultured mouse cerebral cortex neurons
- Measurement Notes: Inhibition of stimulated 3H-GABA release from cultured cerebral cortex neurons
- Type: cell-based
- Condition Context: Cerebral cortex neuron, 37° C., pH 7.4, stimulated 30 sec every 4 min
# maps each entry to its IC50
Measurement Label: IC50 (nM)

1) CC(=O)ON=C1C(=O)Nc2c1cc(-c1ccccc1)c1c2CN(C)CC1 :: 2900
2) CCN1Cc2c(-c3ccccc3)cc3c(c2C1)NC(=O)C3=NOC(C)=O :: 2700
3) CCNC(=O)ON=C1C(=O)Nc2c1cc(-c1ccccc1)c1c2CN(C)CC1 :: 1400
4) CCNC(=O)ON=C1C(=O)Nc2c1cc(-c1ccc(S(=O)(=O)N(C)C)cc1)c1c2CN(C)CC1 :: 190
